Assay: Inhibition of complex 1 in bovine heart mitochondrial membranes in presence of NADH
Set-up: species or system Bos taurus
I'd be grateful if you could share measured IC50 for these entries.
Numbers only, in nM.

Here are 3 compounds. What values of IC50 were reported for them?
1. COc1cc2c(cc1OC)[C@@H]1C(=O)c3ccc(O)c(CC=C(C)C)c3O[C@@H]1CO2
2. COc1cc2c(cc1OC)[C@@H]1[C@H](O)c3ccc4c(c3O[C@@H]1CO2)C=CC(C)(C)O4
3. C=C(C)[C@H]1Cc2c(ccc3c2O[C@@H]2COc4cc(OC)c(OC)cc4[C@]2(O)[C@@H]3O)O1

OUT:
[1090, 14.6, 125]
